Listing of recorded Bottom by entry.
- ASSAY SYSTEM: T1, human G-protein-coupled receptor family C group 5 member D (GPRC5D) (human, UniProt Q9NZD1 1-345)
- T1 construct: whole, on cells; also called human GPRC5D protein
- T1 sequence (Q9NZD1 whole entry): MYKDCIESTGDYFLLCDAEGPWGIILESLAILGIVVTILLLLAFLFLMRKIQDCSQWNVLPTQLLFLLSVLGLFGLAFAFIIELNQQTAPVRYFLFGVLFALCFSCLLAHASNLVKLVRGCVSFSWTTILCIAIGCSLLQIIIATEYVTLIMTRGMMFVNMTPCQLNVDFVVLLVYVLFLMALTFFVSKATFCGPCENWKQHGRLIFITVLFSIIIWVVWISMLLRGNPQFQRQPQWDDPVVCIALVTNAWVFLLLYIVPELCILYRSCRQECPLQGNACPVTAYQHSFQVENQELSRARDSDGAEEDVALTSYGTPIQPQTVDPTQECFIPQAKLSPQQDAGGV
- RUN DESCRIPTION: FACS, CHO-K1/GPRC5D
Reply with just the number.

- BINDER: "34-H1L2 (antibody, V domains shown, humanized 34D3H1, VH v1 x VL v2) VH: EVQLVESGGGLVKPGGSLRLSCAASGFTFSSYGMSWVRQAPGKGLEWVSTISSGGSYTYYPDSVKGRFTISRDNAKNSLYLQMNSLRAEDTAVYYCARQGGDAMDYWGQGTLVTVSS VL: DIQMTQSPSSLSASVGDRVTITCRASQSINNNLHWYQQKPGKAPKLLIYYASQSISGIPSRFSGSGSGTDFTLTISSVQPEDFATYFCQQSNSRLTFGGGTKVEIK"
  ASSAY VALUE: 13900
- BINDER: "34-H2L4 (antibody, V domains shown, humanized 34D3H1, VH v2 x VL v4) VH: EVQLVESGGGLVKPGGSLRLSCAASGFTFSSYGMSWVRQTPGKGLEWVATISSGGSYTYYPDSVKGRFTISRDNAKNSLYLQMSSLRAEDTAVYYCARQGGDAMDYWGQGTLVTVSS VL: DIVLTQSPSSLSVSVGDRVTLTCRASQSINNNLHWYQQKPGKSPKLLIYYASQSISGIPSRFSGSGSGTDFTLTISSVQPEDFATYFCQQSNSRLTFGGGTKLEIK"
  ASSAY VALUE: 4390
- BINDER: "34-H3L1 (antibody, V domains shown, humanized 34D3H1, VH v3 x VL v1) VH: EVHLVESGGGLVKPGGSLRLSCAASGFTFSSYGMSWVRQTPGKRLEWVATISSGGSYTYYPDSVKGRFTISRDNAKNSLNLQMSSLRAEDTAVYYCARQGGDAMDYWGQGTLVTVSS VL: DIQMTQSPSSLSASVGDRVTITCRASQSINNNLHWYQQKPGKAPKLLIYYASQSISGVPSRFSGSGSGTDFTLTISSLQPEDFATYYCQQSNSRLTFGGGTKVEIK"
  ASSAY VALUE: 11100
- BINDER: "34-H3L4 (antibody, V domains shown, humanized 34D3H1, VH v3 x VL v4) VH: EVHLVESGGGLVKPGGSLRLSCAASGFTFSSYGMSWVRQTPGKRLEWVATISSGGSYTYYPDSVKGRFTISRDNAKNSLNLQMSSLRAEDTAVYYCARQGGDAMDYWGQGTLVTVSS VL: DIVLTQSPSSLSVSVGDRVTLTCRASQSINNNLHWYQQKPGKSPKLLIYYASQSISGIPSRFSGSGSGTDFTLTISSVQPEDFATYFCQQSNSRLTFGGGTKLEIK"
  ASSAY VALUE: 12800

Could you now look at the following binder, please?
// recorded Bottom for 34-H3L3 (antibody, V domains shown, humanized 34D3H1, VH v3 x VL v3) VH: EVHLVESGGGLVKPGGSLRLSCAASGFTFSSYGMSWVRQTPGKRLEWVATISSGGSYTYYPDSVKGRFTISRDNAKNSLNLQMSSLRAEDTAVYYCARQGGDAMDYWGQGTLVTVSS VL: DIQLTQSPSSLSASVGDRVTITCRASQSINNNLHWYQQKPGKSPKLLIYYASQSISGIPSRFSGSGSGTDFTLTISSVQPEDFATYFCQQSNSRLTFGGGTKLEIK : 9120
